Examples of compounds with documented growth inhibition follow.
# PROTOCOL_DETAILS: NCI Yeast Anticancer Drug Screen. Data for the sgs1 mgt1 strain (AID 161);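 further: 0% = growth of cultures given vehicle only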
# TEST_CONTEXT: S. cerevisiae sgs1 mgt1 strain, at 50.0 µM (retest, dose inferred, filed as 5.0), hits give high values
# Procedure: Growth inhibition of yeast strains with defined genetic alterations is measured as a screen for potential anti-cancer activity. Selected strains with alterations in DNA damage repair or cell cycle control were exposed to compounds and growth inhibition was measured relative to vehicle treated controls. The strain used in this assay is sgs1 mgt1
About 79,000 compounds went through this panel and 15% of them were active in at least one assay; those are over-represented in the sample as a whole. Calls of active or inactive are those of the source. No stated cut-off is given here; in the data, active means growth inhibition above about 70%; inactive means the rest.

COMPOUND	growth inhibition
ClC1CC[N-]CC1.ClC1CC[N-]CC1.[Cl][Pt+2]([Cl])([Cl])[Cl]	98% (active)
c1ccc(-n2ncc3ccc4cccn4c32)cc1	40% (inactive)
CC(=O)Oc1ccc(C)cc1C(C)(C)C	-2% (inactive)
CN(/N=C\c1ccc(Cl)cc1)C(c1ccc(Cl)cc1)N(C)/N=C/c1ccc(Cl)cc1 (stereo unspecified)	94% (active)
Cc1cc(Cl)c(C(C)C)cc1O	55% (inactive)
COc1cc([C@@H]2c3cc4c(cc3[C@@H](OC3OC5CO[C@@H](c6cccs6)OC5C(O)C3O)[C@H]3COC(=O)[C@H]23)OCO4)cc(OC)c1O (stereo partly specified)	77% (active)
CCC[CH2][Sn]([CH2]CCC)([O]C(=O)Cc1ccc(F)cc1)[O]C(=O)Cc1ccc(F)cc1	27% (inactive)
c1ccc2c(B(c3cccc4ccccc34)c3cccc4ccccc34)cccc2c1	99% (active)
CCCCCCc1ccc(O)c(Cl)c1	15% (inactive)
CC12CCC(=O)C=C1CCC1C2CCC2(C)C(c3cnc[nH]3)CCC12 (stereo unspecified)	82% (active)
Clc1ccc(CN2COc3c(ccc4ccccc34)C2)cc1	97% (active)

Just for reference, PubChem BioAssay (NCI) is where these values come from.
